Tested on: MS2 coat protein
ASSAY REMARKS: apparent KD of MS2 coat protein; designed switch direction (-1 OFF switch, 1 ON switch): -1; higher = weaker reporter binding
TEST CONDITIONS: input ligand: FMN 200 uM
PROPERTY: apparent KD of MS2 coat protein

QUERY SEQUENCE	MEASURED VALUE
UACAUACGUCGAUCGAAAGACAUGAGGAUCACCCAUGUACGAUGUCAACGUCAAAUCCAAGUAUUUUGCUCUCGUCA [Eternabot (L2) Solution 32] (Eterna round: R97, puzzle: Sensor, turn-off variant 1)	15.6 nM
GCCGCCGCCUUGGCGGCGGACAUGAGGAUCACCCAUGUCAAGCUUUUGCUCGUCUUAUUUGGCCGGCUUGCCGGCCA [Olib_1] (Eterna round: R97, puzzle: Sensor, turn-off variant 1)	24.5 nM
GCACGGAGUGUAGGAUAUUAGUGCGAUUAGCACUGAGAAGGACAUGAGGAUCACCCAUGUUCCUCAAUAAAAUACCUUCCGUGC [Eli exng1 - 040] (Eterna round: R96, puzzle: Exclusion NG 1)	13.4 nM
AGCGUGUUAGGAUAUACACGACACUGGGUAGCGGGUGGAGGGUAGAAGGGACAUGAGGAUCACCCAUGUUCGGG [Ortere] (Eterna round: R97, puzzle: Exclusion 4)	28.5 nM
UACUGGACAGGAUAUGUUCUUGAGCACUUGAGGAUCACCCAAGUCAUCAAGAACUCAGGCACAGAAGGGUUUAUGG [salish99_ex5_r4_006] (Eterna round: R97, puzzle: Exclusion 5)	25.5 nM
UAUACCACAGUUAGGAUAUUCUAAGUAGUAGCUAAGAAGAAGGAACAUGAGGAUCACCCAUGUGGAGCCAGCGU [Eternabot (L1) Solution 99] (Eterna round: R97, puzzle: Brourd's mod of Exclusion 4)	45.3 nM
AUCAGCUCGUCAGGAUAUACAUGAGGAUCACCCAUGUGAUCAAUAGCAGCUUCGGCUGCAUUAAUGUAGAAGGGACGAGCUGAU [ENG2/5-B3] (Eterna round: R96, puzzle: Exclusion NG 2)	175 nM
AGGUCACAUGAGGAUCACCCAUGUCAGGAUAUCGUCACUGGAGCUUCGGCUCCAGUGACGAGAAGGGACAAUUA [E1/6-A1] (Eterna round: R97, puzzle: Exclusion 1)	499 nM
GGCAUGUAAGGAUAUGCCACUGAGUGCUUUGCGCUCAGAAAGCAGAAGGUACAUGAGGAUCACCCAUGUGAUAA [jl-ex4-4.53 ViennaUCT mod] (Eterna round: R97, puzzle: Exclusion 4)	945 nM
CUAGCGAAUGUAGGAUAUCGGACUGUUUCAGUCUGAGAAGGACAUGAGGAUCACCCAUGUAUAGCUACGUGAGUAGCACGCUAG [JL ENG1 3.90] (Eterna round: R96, puzzle: Exclusion NG 1)	27.6 nM

====

Tested on: MS2 coat protein
ASSAY REMARKS: apparent KD of MS2 coat protein; designed switch direction (-1 OFF switch, 1 ON switch): -1; higher = weaker reporter binding
TEST CONDITIONS: input ligand: none
Kind request: treat 40 nM as inclusive, so apparent KD of MS2 coat protein at 40 nM or higher is 1.0, anything lower is 0.0.

QUERY SEQUENCE	ANSWER LABEL
GGUUGGCGAGGAUAUACAUGAGGAUCACCCAUGUGGUCCUGUGGCUAAAAAAACCUUUGUAGAAGGCGCGGGUC [salish99_ex3_r4_030] (Eterna round: R97, puzzle: Exclusion 3)	1.0
UCGUGUGCGUAGGAUAUCGGUAUGAAGGGAGAAUGAGAAGGGCGGACAUGAGGAUCACCCAUGUGUGCCGGAAA [EX6 B.4] (Eterna round: R97, puzzle: Exclusion 6)	0.0
AGAUGCUCGAGUCGACAUGAGGAUCACCCAUGUACAGUUAGUGAGGAUAUCGGAGACACAUAGUAUGAGAAGGCGCGAACGUGA [Ex NG3 #15] (Eterna round: R96, puzzle: Exclusion NG 3)	1.0
AAAUCGGUAGAGGAUAUUGUACAGGAAACGGUGCAAGAAGGUUGCACAUGAGGAUCACCCAUGUUUAAUUGCGA [EX6 #50] (Eterna round: R97, puzzle: Exclusion 6)	0.0
ACAUGUUGCGCAGGAUAUGGGACACAUGAGGAUCACCCAUGUGGUUACAUGUCUUACCAAGCGUCCCAGAAGGGUGUGAACAUG [Ex NG2 #32] (Eterna round: R96, puzzle: Exclusion NG 2)	0.0
GUAAACGCAGAGGAUAUUUCAGAUCCUAGCUGCAAAGAAGGCUGCACAUGAGGAUCACCCAUGUGGUCCUGAAG [Mat - Exclusion 6 - Eli Mod - D2] (Eterna round: R97, puzzle: Exclusion 6)	1.0
GUAGAGUCAGGAUAUACGAGAUCGAAAGAUCGGCGAUCCCUACAUGAGGAUCACCCAUGUAGAAGGGACUCUAC [Eli x2 4.12] (Eterna round: R97, puzzle: Exclusion 2)	0.0
ACAGUUCUGCAAGGAUAUCGUCCUAGUUUGUUUCGAGAAGGUGCUUUUGUUUUUUCUUUGUGUUGACAUGAGGAUCACCCAUGU [JR_ExcNG1_Sub052] (Eterna round: R96, puzzle: Exclusion NG 1)	0.0
CGUCUGUAAGGAUAUGGUUGCAUCAACAUGAGGAUCACCCAUGUAACUUGGGACUAGUGAUUAGAAGGUACGAACG [EX5 #59] (Eterna round: R97, puzzle: Exclusion 5)	1.0
UCAUGUCCUGAGGAUAUGUAGCGGAUAAACGCAACAGAAGGCAGGACAUGAGGAUCACCCAUGUGCGCCUUUCA [Exclusion 6 Mod2 of JL of Mod of Letion by ViennaUCT] (Eterna round: R97, puzzle: Exclusion 6)	1.0
